- System: MS2 coat protein
- measurementNotes: apparent KD of MS2 coat protein; designed switch direction (-1 OFF switch, 1 ON switch): 1; higher = weaker reporter binding
- recordedConditions: input ligand: none
Catalogue of apparent KD of MS2 coat protein values
Remember to quote the unit after the number.

input: What value of apparent KD of MS2 coat protein has been recorded for this entry: AAAGAAAACGCAGGAUAUCCCGGAAAAGAUCCGGGAGAAGGGUGACCGGUACAUGAGGAUCACCCAUGUAGAGCAAAGGCUCAA [Ceonbeti] (Eterna round: R96, puzzle: Same State NG 1)
output: 128 nM

input: Entry to check: GCUGCAAGGGCAGGAUAUGGGUUCAGAGCGGAAGUGCGCUUUGAUACAUGAGGAUCACCCAUGUCCCAGAAGGGCCCAUGCGGC [Arredibi] (Eterna round: R96, puzzle: Same State NG 2)
output: 113 nM

input: Entry to check: AUCAUUAAUGCAGGAUAUGAUUAACAUGAGGAUCACCCAUGUGGUGUUGUGAGUAAGGAGAGUGAUCAGAAGGGCAUUUUUUUU [JMF's solution 35] (Eterna round: R96, puzzle: Same State NG 2)
output: 469 nM

input: Entry to check: GGCGAACAGGCUAACAUGAGGAUCACCCAUGUGGACUCAUGUUAGGAUAUCGGGAAGGAGGAAACCGAGAAGGGACGGUGAGCC [AK SSNG3-V2-47] (Eterna round: R96, puzzle: Same State NG 3)
output: 82.3 nM

input: Entry to check: CGGGUAAUCGUAGGAUAUCUAGGAUAUGAACGAGGAUCACCCGAGCAGCAUCAGCGCAUCAGAGGAGAGAAGGACGAUGAUGCG [pwkr ssNG2 2F5 2FMN.18] (Eterna round: R96, puzzle: Same State NG 2)
output: 470 nM

====

Catalogue of apparent KD of MS2 coat protein values
- Test system: MS2 coat protein
- measurementNotes: apparent KD of MS2 coat protein; higher = weaker reporter binding
- recordedConditions: Eterna round: R107; input ligand: arginine 13.2 mM
Please give a number only; it is taken to be in nM.

Solved entries (count: 2):
input: What value of apparent KD of MS2 coat protein has been recorded for this entry: AUGUAGAACCGAAGGAGCGCGAUGACAUGAGGAUCACCCAUGUAUUUGUGGUGGCUUCGAUCGCAGGUAGGUCGCGGAAGUAGUA [#04 Exclusion - Arginine B]
output: 96.6

input: Entry to check: AGCCACUCGAGUGAUCCUCACGAGUGGCUACGAGGACCGGUACGGCCGCCACUCGAAUUAACAUGAGGAUCACCCAUGUAAUCUA [Brourdmod07]
output: 22.5

New cases:
input: What value of apparent KD of MS2 coat protein has been recorded for this entry: AAUCAUGAAAACAUGACAUGAGGAUCACUCCGAGGACCGGUACGGCCGCCACUCGCGAGGAGGCGGACAUGAGGAUCACCCAUGU [#02 Tryptophan A Same State]
output: 49.2

input: Entry to check: GGGCCCGGGCGCGAGCCCGGGCCCAUUGAUACCAGUGAUAUAUAACGCCCUUGGCAGCGAAUCCUAACAUGAGGAUCACCCAUGU [5.G]
output: 35.2

input: Entry to check: AAACUUCGCAUAGGAAAACUAUGUGAAGAUCGAGGACCGGUACGGCCGCCACUCGUCCUCAACAUGAGGAUCACCCAUGUAAUAA [Mat - Exclusion - Trytophan A - D3]
output: 22.8

input: Entry to check: UUUAAGAACCGAAGGAGCGCCAGAAAUAAGAACGCUACAUGAGGAUCACCCAUGUAAUAAGGGCAGGUAGGUCGCGGAAUUUAAA [last]
output: 17.9

input: Entry to check: UUAAUCGUGCAUGAUACCAGUAUCCGUAGAUACAUGAGGAUCACCCAUGUCUGGUUGGAAUACCCUUGGCAGCAUGGGUUGAGGA [theeternabot_sameState_MS2_Theo_B_20]
output: 37.1

input: Entry to check: CUAGGAAACUAGUAAGGGUGGUAUAGAGAUACCAGUACAGAAAUGUACCCUUGGCAGCUCACUGCAACAUGAGGAUCACCCAUGU [Ex Theophylline A 11]
output: 29.9

input: Entry to check: AGGAAACAACAUGAGGAUCACCCAUGUGAUACCAGUCAAAUAAAAGACCCUUGGCAGCACACAUGACAUGAGGAUCACCCAUGUA [AstrosSSTheA#1]
output: 24.8

input: Entry to check: ACAUGAGGAUCACCCAUGUAAUAGCGAGAAGGAGCGCGUAAGGACGCAGGUAGGUCGCUCGUGGUCCGGCCGCAAGGCCGGACCA [#1 Same State - Arginine A Attempt #10 (HarryS)]
output: 11.1

input: Entry to check: UAUUCUGACACAGAUACCAGUCAAUUCCGUGGCAAGUGCUACAUGAGGAUCACCCAUGUCGACCCUUGGCAGCUGAAGAGAUACA [theeternabot_exclusion_MS2_Theo_B_50]
output: 10.9

====

- System: K4 kissing-loop RNA reporter;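 note: bound reporter read as fluorescence of individual clusters on recovered sequencing chips by microscopy, with normalized cluster intensities fitted with a binding model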
- measurementNotes: apparent KD of K4 kissing-loop reporter; higher = weaker reporter binding
- recordedConditions: Eterna round: R107; input ligand: arginine 13.2 mM
Please mark Satisfied if the recorded apparent KD of K4 kissing-loop reporter is equal to or greater than 100 nM, and Not satisfied if it falls below.

// below: answered sequences
input: Would you say UGACUGGACUGAAGGAGCGCGAACUCCUAGUGAUGUUAGGAAAUACGAGACAAAGUCUCGACGCAGGUAGGUCGCAGUCUAGUCU [ArgBS 15 #SwitchBubble #StaticStem] shows apparent KD of K4 kissing-loop reporter at minimum 100 nM?
output: Not satisfied

input: Entry to check: AGAGUGAUGUUUUUUUGAAGUGAGUAAUGUCGAGGACCGGUACGGCCGCCACUCGAGUGAUGUUAGUGAUGUUGAUGUAGUGAUG [?lmullin]
output: Not satisfied

input: Entry to check: GAUAAAUUGAUGCGUAGUGAUGCACGGGAAGGAGCGCGUUUUUUCGCAGGUAGGUCGCCCGACUGCGCGUUUCGAGUGAUGUUCG [5.)]
output: Satisfied

New cases:
input: Would you say AAUUUACAUUAAUUAUUUAAAGGUUCAGAAGGAGCGUGAAUUAACACAGGUAGGUCGCUGAGCGAGUGAUGUUCGCUAUAUACUA [JR_ExcArginiA_Sub003] shows apparent KD of K4 kissing-loop reporter at minimum 100 nM?
output: Not satisfied

====

Catalogue of apparent KD of MS2 coat protein values
- Test system: MS2 coat protein
- measurementNotes: apparent KD of MS2 coat protein; designed switch direction (-1 OFF switch, 1 ON switch): 1; higher = weaker reporter binding
- recordedConditions: input ligand: FMN 200 uM
Please give a number only; it is taken to be in nM.

input: // lookup apparent KD of MS2 coat protein | system=MS2 coat protein | key= GCUCGACGUGUUGUCUACAUGAGGAUCACCCAUGUAGGUGCGGAGGAUAUCUACGUGCUUUAUGUAGAGAAGGUCGUGUCGAGC [SameState NG3 #87] (Eterna round: R96, puzzle: Same State NG 3)
output: 32.4

input: Entry to check: AUUGCUAUCACAGGAUAUCAUGCGAAAAUCGCGUGAGAAGGGUGGACUCUGUCAUUCACGGAGGACAUGAGGAUCACCCAUGUC [SS NG10LRO16] (Eterna round: R96, puzzle: Same State NG 1)
output: 363

input: Entry to check: GGAAUAUUUACAGGAUAUGAGUUGUAAAGUCGAUCAGAAGGGUAGAUGUCUUACACGGUGUGUUACAUGAGGAUCACCCAUGUU [SameState NG1 #19] (Eterna round: R96, puzzle: Same State NG 1)
output: 169

====

- Tested on: MS2 coat protein
- measurementNotes: apparent KD of MS2 coat protein; higher = weaker reporter binding
- recordedConditions: Eterna round: R107; input ligand: arginine 13.2 mM
Catalogue of apparent KD of MS2 coat protein values
Please give a number only; it is taken to be in nM.

input: // lookup apparent KD of MS2 coat protein | system=MS2 coat protein | key= UACUUGCUGACGGCCGCCACUAGAACAUGAGGAUCACCCAUGUACCUGGUCCUUCAUGGGUGGACUAGGACCGGGUCAGCAAGAU [(Trp1)-(Ms2)-(T)'-(M)'-(Trp2)_Design4]
output: 186

input: Entry to check: GAUACUAUGAAAGUAGUAUCUACGUGUUGACGAGGACCGGUACGGCCGCCACUCGACAUGAGGAUCACCCAUGUAUAGAAUAUGU [TrypA_2]
output: 25.1

New cases:
input: // lookup apparent KD of MS2 coat protein | system=MS2 coat protein | key= ACAUGAGGAUCACCCAUGUUAAACACAGAAGGAGCGUGAAGGAACACAGGUAGGUCGCUGUACUUAUUGAGUAUUCACUCGAUAC [JR_Nu_SSArginiA_Sub028]
output: 14.9

input: Entry to check: CUACAUUUGUAGAAACCGGUCAACAUUAUUCGAGGACCGGUACGGCCGCCACUCGUAUCAUUUGAUACAUGAGGAUCACCCAUGU [Tryptophan A 8]
output: 21.1
